Attribution: patent US9359487B2

# measurement_notes: Volatility of pure plasticiser by thermal-gravimetrical analysis
# Assay type: physicochemical
# settings: 200° C./10 min, pure compound
result_type: Volatily plasticizer (weightloss [m %]) (m %)
Respond with the bare value in m %.

Record request: Volatily plasticizer (weightloss [m %]) value, item CC(C)CCCCCCOC(=O)c1ccccc1 [INB, Isononyl Benzoate]
−61.7

Consider next the compound CCCCC(CC)COC(=O)c1ccc(C(=O)OCC(CC)CCCC)cc1 (stereo not shown) [DOTP, Di-octyltherephthalate] in the same way.
−4.8

Consider next the compound CC(C)CCCCCCOC(=O)c1ccccc1C(=O)OCCCCCCC(C)C [DINP, Di-isononylphthalate] in the same way.
−4.3

Consider next the compound CCCCC(CC)COC(=O)CCCCC(=O)OCC(CC)CCCC (stereo not shown) [DOA, Di-octyladepate] in the same way.
−18.4
